System: SF-539 CNS
Experiment: NCI tumour cell line growth inhibition, 48 h
Please respond with reported TGI for every item in the list.

Kindly note the recorded TGI for `Cc1cccc(Cl)c1NC(=O)/C=C/c1ccccc1` , which is > 100 µM

What the record says about COC(=O)C12CC(c3ccccc31)C1C(=O)OC(=O)C12 (stereo not drawn) : TGI is > 100 µM

Record summary for `Fc1ccccc1-c1nn2c(C34CC5CC(CC(C5)C3)C4)nnc2s1` : reported TGI = > 100 µM

* * *

Answer each item with its documented TGI.
Tested on: OVCAR-8 ovarian
Experiment: NCI tumour cell line growth inhibition, 48 h
Where a SMILES comes first, the peptide text is derived from it. [ ]: non-standard residue; d: D form. The star is where a group is joined. ξ: configuration not given here. NMeN = CN[C@@H](CC(N)=O)C(=O)O; NMeV = CN[C@H](C(=O)O)C(C)C; ξNMeV = CNC(C(=O)O)C(C)C; Boc = CC(C)(C)OC(=O)*; ξNMeA = CNC(C)C(=O)O

Lab note: measured TGI of `O=c1c2cccnc2cc(-c2ccccc2)n1CCO` was > 100 µM

Notebook: `CSc1nc(NC(=O)O)c(N(C(C)=O)C(=O)O)c(=O)n1C` , TGI read as > 100 µM

Value of measured TGI for the entry COc1ccc2c(c1)N=C1CSC(c3cccc(Br)c3)N1C2 (stereo unspecified) : > 100 µM

For CC(=O)OC1COC(n2c(-c3ccc(Cl)cc3)cc(-c3ccccc3)c(C#N)c2=S)C(OC(C)=O)C1OC(C)=O (stereo unspecified) the compound record lists TGI as 21.6 µM

The recorded TGI for `Cc1cc2cc3c(C)cc(=O)oc3c(C)c2o1` is > 100 µM

TGI recorded for this compound, `O=S(=O)(c1ccc(N=C2NN=C(c3c[nH]c4ccccc34)CS2)cc1)N1CCOCC1` , is > 100 µM

Given item `O=[N+]([O-])c1ccc2[nH]ncc2c1Cl` , the value recorded as its TGI is > 100 µM

Briefly, TGI measured for `Cn1nc(-c2ccccc2)nc1[N+](=O)[O-]` : > 10 µM

Sure, the documented TGI for `CCOC(=O)C1=C(Nc2ccc(Cl)cc2Cl)OC/C1=N\NS(=O)(=O)c1ccc(C)cc1` is > 100 µM

Lab note: measured TGI of `O=C([CH-]C(=O)c1ccccc1)c1ccccc1.O=C([CH-]C(=O)c1ccccc1)c1ccccc1.O=C([CH-]C(=O)c1ccccc1)c1ccccc1.[OH3+].[Y+3]` was 21.8 µM

The compound `NC1CCCCC1N.O=S(=O)([O-])CCCN1CCOCC1.O=S(=O)([O-])CCCN1CCOCC1.[Pt+4]` showed TGI equal to > 100 µM

Memo: `Cc1cc(N2CCN(c3ccnc4cc(Cl)ccc34)CC2)nc(NC2CCCCC2)n1` , reported TGI: 6.35 µM

// recorded TGI for `C[C@@H]1N=C(c2ccc(Br)cc2)Nc2nc3ccccn3c2C1=O` : > 100 µM

Input `O=C1c2ccccc2C2=Nc3ccncc3CN12` . Output TGI: > 100 µM

For this compound ( `COc1cc(C=Nc2ccc(C(C)C)cc2)cc(OC)c1OC` ), measured TGI is > 100 µM

Data point: `Cc1cccc(C)c1NC(=S)NC=C(C(N)=O)C(N)=O` ; TGI = > 100 µM

Per the record, CCCCCCCCC/C=C1\CC(CO)(COC(=O)C2CCCCC2)OC1=O (stereo unspecified) has TGI of 29.2 µM

The compound `Cn1c(NS(=O)(=O)c2ccccc2)nc2ccccc21` showed TGI equal to > 100 µM

`O=C1NC(=S)NC(=O)C1=Cc1cccc2cc3ccccc3cc12` has a reported TGI of 3.9 µM

The recorded TGI for entry `NC(=O)c1ccc2c(-c3ccnc(NCCCO)n3)c(-c3ccc(F)cc3)nn2c1` equals > 25 µM

In plain terms, CC(=O)NC1C(O)C(O)C(CO)OC1n1ncc(=O)[nH]c1=O (stereo unspecified) has a documented TGI of > 100 µM

Per the record, `CCN(CC)CCNC(=O)c1nn(C)c(=S)[nH]c1=S` has TGI of > 100 µM

Data point: CC(=O)OCC1OC(N2C(C)=C(C(C)=O)C(c3ccco3)C(C#N)=C2S)C(OC(C)=O)C(OC(C)=O)C1OC(C)=O (stereo unspecified) ; TGI = > 100 µM

# TGI (compound: `CCN(CC)C(=S)SNCc1ccc(S(N)(=O)=O)cc1` ) is 28.4 µM

# compound COc1cc(C2c3cc4c(cc3OC(Nc3ccccc3)C2C)OCO4)cc(OC)c1OC (stereo unspecified) ; its TGI = > 31.6 µM

For `COc1ccc(C2=C(c3ccc(OC)c(OC)c3)C(=O)OC2)cc1` the compound record lists TGI as > 100 µM

Briefly, TGI measured for `CNn1c(C)n[nH]c1=O` : > 100 µM

The recorded TGI for entry CC(=O)N(CCc1ccccc1)C(C#N)c1ccc(OCCCCCCCCCCOc2ccc(C(C#N)N(CCc3ccccc3)C(C)=O)cc2)cc1 (stereo unspecified) equals > 100 µM

get_value(item= `CC[Si](CC)(CC)OC[C@]1([C@@H]2COC(C)(C)O2)CC=CC(=O)O1` , readout=TGI) returns 91.8 µM

Reported TGI of CC(C)(C)[Si](C)(C)OCC1CCC(n2cnc3c(N)ncnc32)O1 (stereo unspecified) : > 100 µM

// TGI value for NC1=NN(c2ccccc2)C2(O)c3ccncc3C3=NN(c4ccccc4)C(=O)C132 (stereo unspecified) : > 100 µM

Given item `COc1cccc2c(Nc3ccc(S(=O)(=O)NC(C)=O)cc3)c3ccc([N+](=O)[O-])cc3nc12` , the value recorded as its TGI is > 100 µM

The value of TGI measured for the compound COC(=O)C12C(=O)O[C@H](C)C1(O)C(C)C(=O)N2C (stereo partly specified) turned out to be > 100 µM

Record `CCOc1ccc(Nc2nc(-c3ccc4c(c3)NC(=O)CO4)cs2)cc1` , field TGI: > 100 µM

// field: TGI; key: COC(=O)C(C)N(C)C(=O)[C@H](CC(N)=O)N(C)C(=O)[C@@H]1CCCN1C(=O)[C@H](C(C)C)N(C)C(=O)C(C(C)C)N(C)C(=O)[C@@H](NC(=O)OC(C)(C)C)C(C)C (stereo partly specified) (Boc-V[ξNMeV][NMeV]P[NMeN][ξNMeA]-OMe) ; value = > 100 µM

Reported TGI of CC1(C)CCC[C@@]2(C)C1CC[C@H]1CC(O)C3(C)CCC12C3 (stereo partly specified) : 32.6 µM

This collection of values is drawn from PubChem BioAssay (NCI).
